- assayed.system: acetylcholinesterase (AChE) (Homo sapiens, UniProt P22303)
- Construct: purchased Sigma-Aldrich (Steinheim, Germany)
- Sequence (P22303 32-614, species assumed): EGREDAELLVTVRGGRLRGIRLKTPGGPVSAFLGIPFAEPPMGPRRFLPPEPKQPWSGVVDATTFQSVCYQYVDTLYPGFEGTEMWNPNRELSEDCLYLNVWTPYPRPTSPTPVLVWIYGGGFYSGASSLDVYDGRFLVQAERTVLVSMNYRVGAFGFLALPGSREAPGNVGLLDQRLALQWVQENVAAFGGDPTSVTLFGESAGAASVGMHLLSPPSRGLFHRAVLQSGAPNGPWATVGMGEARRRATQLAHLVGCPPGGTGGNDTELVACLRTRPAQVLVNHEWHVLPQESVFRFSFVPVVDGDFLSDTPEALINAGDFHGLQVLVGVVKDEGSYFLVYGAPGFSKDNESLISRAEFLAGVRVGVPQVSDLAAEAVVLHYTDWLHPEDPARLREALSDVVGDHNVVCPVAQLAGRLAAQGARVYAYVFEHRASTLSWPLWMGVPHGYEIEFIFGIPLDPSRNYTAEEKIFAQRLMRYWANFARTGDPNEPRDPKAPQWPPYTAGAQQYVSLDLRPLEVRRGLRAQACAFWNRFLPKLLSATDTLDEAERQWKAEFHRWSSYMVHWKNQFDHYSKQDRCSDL
- protocol.description: biochemical
- measurement.conditions: in vitro; value ± standard error mean; read-out: AChE Inhibition IC50 ± SEM
- Procedure: All chemicals and reagents employed in the study were obtained from Merck or Sigma-Aldrich (St. Louis, MO, USA) (Darmstadt, Germany). Acetylcholinesterase (E.C.3.1.1.7) and butyrylcholinesterase (E.C. 3.1.1.8) were procured from Sigma–Aldrich (Steinheim, Germany). The ^1H NMR and ^13C NMR spectra were recorded using a Bruker FT-NMR spectrometer operating at the digital frequencies of 600 and 150 MHz (Bioscience, Bruker, Billerica, MA, USA). […]
Provide the recorded pIC50 for the entries that follow.
Give bare numbers, as −log10 of the molar value.

• O=[N+]([O-])c1ccc(NC2=CC=C(/N=C(\CSc3nc4ccccc4[nH]3)c3ccc(Cl)c(Cl)c3)C2)c(O)c1 [Compound 5] = 3.77
• O=[N+]([O-])c1ccc(NC2=CC=C(/N=C(\CSc3nc4ccccc4[nH]3)c3ccccc3)C2)c(O)c1 [Compound 10] = 3.47

Now for a further compound.
Lookup: Could you share what pIC50 was measured for Cc1ccc(/C(CSc2nc3ccccc3[nH]2)=N/C2=CC=C(Nc3cccc([N+](=O)[O-])c3)C2)cc1 [Compound 12] , tested on acetylcholinesterase (AChE) (Homo sapiens, UniProt P22303)?
Found: 3.51

---

- assayed.system: acetylcholinesterase (AChE) (Homo sapiens)
- Construct: purchased Sigma-Aldrich (Steinheim, Germany)
- protocol.description: biochemical
experimental.readout: IC50
Express the reported value numerically, then name its unit.

• O=[N+]([O-])c1ccc(/C(CSc2nc3ccccc3[nH]2)=N/C2=CC=C(Nc3ccc([N+](=O)[O-])cc3O)C2)cc1 = 214 µM

Quick one: give me IC50 for each item below, same order please.
1. O=[N+]([O-])c1cccc(NC2=CC=C(/N=C(\CSc3nc4ccccc4[nH]3)c3ccc([N+](=O)[O-])cc3Br)C2)c1
2. O=[N+]([O-])c1ccc(NC2=CC=C(/N=C(\CSc3nc4ccccc4[nH]3)c3ccccc3[N+](=O)[O-])C2)c(O)c1

Found:
["214 µM", "124 µM"]

---

- assayed.system: acetylcholinesterase (AChE) (Homo sapiens)
- Construct: purchased Sigma-Aldrich (Steinheim, Germany)
- protocol.description: biochemical
- measurement.conditions: in vitro; value ± standard error mean; read-out: AChE Inhibition IC50 ± SEM
Kindly supply the reported pIC50 values for the records listed here.
Numbers only, as −log10 of the molar value.

Recorded results for 6 compounds are shown here.
• COc1ccc(/C(CSc2nc3ccccc3[nH]2)=N/C2=CC=C(Nc3cccc([N+](=O)[O-])c3)C2)cc1O [Compound 9] = 3.76
• Cc1cccc(/C(CSc2nc3ccccc3[nH]2)=N/C2=CC=C(Nc3cccc([N+](=O)[O-])c3)C2)c1 [Compound 13] = 3.49
• Cc1ccc(/C(CSc2nc3ccccc3[nH]2)=N/C2=CC=C(Nc3ccc([N+](=O)[O-])cc3O)C2)cc1 [Compound 4] = 3.56
• Cc1ccccc1/C(CSc1nc2ccccc2[nH]1)=N/C1=CC=C(Nc2ccc([N+](=O)[O-])cc2O)C1 [Compound 8] = 3.54
• O=[N+]([O-])c1ccc(NC2=CC=C(/N=C(\CSc3nc4ccccc4[nH]3)c3ccccc3Br)C2)c(O)c1 [Compound 7] = 3.50
• O=[N+]([O-])c1cccc(NC2=CC=C(/N=C(\CSc3nc4ccccc4[nH]3)c3ccccc3Br)C2)c1 [Compound 17] = 3.63

We now examine a further compound.
Lookup: Any idea what pIC50 came out for Cc1ccccc1/C(CSc1nc2ccccc2[nH]1)=N/C1=CC=C(Nc2cccc([N+](=O)[O-])c2)C1 [Compound 14] on acetylcholinesterase (AChE) (Homo sapiens)?
Found: 3.54

---

- assayed.system: butyrylcholinesterase (BuChE) (Homo sapiens)
- Construct: purchased Sigma-Aldrich (Steinheim, Germany)
- protocol.description: biochemical
- measurement.conditions: in vitro; value ± standard error mean; read-out: BuChE Inhibition IC50 ± SEM
- Procedure: All chemicals and reagents employed in the study were obtained from Merck or Sigma-Aldrich (St. Louis, MO, USA) (Darmstadt, Germany). Acetylcholinesterase (E.C.3.1.1.7) and butyrylcholinesterase (E.C. 3.1.1.8) were procured from Sigma–Aldrich (Steinheim, Germany). The ^1H NMR and ^13C NMR spectra were recorded using a Bruker FT-NMR spectrometer operating at the digital frequencies of 600 and 150 MHz (Bioscience, Bruker, Billerica, MA, USA). […]
Mark satisfied for IC50 under 300 µM, not satisfied if at or over.

Some solved cases for reference:
- O=[N+]([O-])c1ccc(NC2=CC=C(/N=C(\CSc3nc4ccccc4[nH]3)c3ccccc3)C2)c(O)c1 [Compound 10]: not satisfied
- Cc1cccc(/C(CSc2nc3ccccc3[nH]2)=N/C2=CC=C(Nc3cccc([N+](=O)[O-])c3)C2)c1 [Compound 13]: not satisfied
- Cc1ccc(/C(CSc2nc3ccccc3[nH]2)=N/C2=CC=C(Nc3ccc([N+](=O)[O-])cc3O)C2)cc1 [Compound 4]: satisfied
- Cc1ccccc1/C(CSc1nc2ccccc2[nH]1)=N/C1=CC=C(Nc2cccc([N+](=O)[O-])c2)C1 [Compound 14]: not satisfied

Could you now consider this next compound?
Lookup: # TODO verify IC50 < 300 µM strictly for this compound: COc1ccc(/C(CSc2nc3ccccc3[nH]2)=N/C2=CC=C(Nc3cccc([N+](=O)[O-])c3)C2)cc1O [Compound 9]
Found: satisfied

---

Kindly state IC50 for each of the entries shown.
- assayed.system: butyrylcholinesterase (BuChE) (Homo sapiens)
- Construct: purchased Sigma-Aldrich (Steinheim, Germany)
- protocol.description: biochemical
Numbers only, in µM.

- O=[N+]([O-])c1cccc(NC2=CC=C(/N=C(\CSc3nc4ccccc4[nH]3)c3ccc([N+](=O)[O-])cc3Br)C2)c1 [Compound 18]: 247
- Cc1cc([N+](=O)[O-])ccc1/C(CSc1nc2ccccc2[nH]1)=N/C1=CC=C(Nc2cccc([N+](=O)[O-])c2)C1 [Compound 15]: 221
- O=[N+]([O-])c1ccc(/C(CSc2nc3ccccc3[nH]2)=N/C2=CC=C(Nc3cccc([N+](=O)[O-])c3)C2)cc1 [Compound 11]: 274
- Cc1cc([N+](=O)[O-])ccc1/C(CSc1nc2ccccc2[nH]1)=N/C1=CC=C(Nc2ccc([N+](=O)[O-])cc2O)C1 [Compound 2]: 204
- O=[N+]([O-])c1ccc(NC2=CC=C(/N=C(\CSc3nc4ccccc4[nH]3)c3ccccc3[N+](=O)[O-])C2)c(O)c1 [Compound 3]: 131

Quick request: IC50 for each listed item, please.
1. O=[N+]([O-])c1ccc(NC2=CC=C(/N=C(\CSc3nc4ccccc4[nH]3)c3ccc([N+](=O)[O-])cc3Br)C2)c(O)c1 [Compound 6]
2. O=[N+]([O-])c1ccc(/C(CSc2nc3ccccc3[nH]2)=N/C2=CC=C(Nc3ccc([N+](=O)[O-])cc3O)C2)cc1 [Compound 1]

Found:
274
249

---

Please go through the items and note down their IC50.
- assayed.system: butyrylcholinesterase (BuChE) (Homo sapiens, UniProt P06276)
- Construct: purchased Sigma-Aldrich (Steinheim, Germany)
- Sequence (P06276 29-602): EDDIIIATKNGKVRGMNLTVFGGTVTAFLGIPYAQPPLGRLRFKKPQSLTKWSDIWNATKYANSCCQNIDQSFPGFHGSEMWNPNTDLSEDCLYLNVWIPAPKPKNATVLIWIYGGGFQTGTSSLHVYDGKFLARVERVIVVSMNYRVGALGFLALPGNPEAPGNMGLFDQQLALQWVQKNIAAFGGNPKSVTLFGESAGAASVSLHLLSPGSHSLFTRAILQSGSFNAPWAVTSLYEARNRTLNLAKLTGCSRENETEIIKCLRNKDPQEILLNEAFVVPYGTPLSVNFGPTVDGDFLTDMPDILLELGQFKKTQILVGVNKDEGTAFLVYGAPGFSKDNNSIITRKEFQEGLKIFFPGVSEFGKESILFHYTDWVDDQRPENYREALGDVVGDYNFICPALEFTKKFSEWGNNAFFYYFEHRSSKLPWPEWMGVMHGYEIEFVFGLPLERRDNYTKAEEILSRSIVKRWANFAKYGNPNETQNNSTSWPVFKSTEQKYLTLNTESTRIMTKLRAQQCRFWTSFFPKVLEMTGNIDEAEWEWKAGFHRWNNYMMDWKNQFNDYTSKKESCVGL
- protocol.description: biochemical
- measurement.conditions: in vitro; value ± standard error mean; read-out: BuChE Inhibition IC50 ± SEM
Answers are plain numbers, in µM.

* O=[N+]([O-])c1cccc(NC2=CC=C(/N=C(\CSc3nc4ccccc4[nH]3)c3ccccc3Br)C2)c1 [Compound 17] | 269

Okay, here is my list. What is IC50 for each of these?
1. O=[N+]([O-])c1ccc(NC2=CC=C(/N=C(\CSc3nc4ccccc4[nH]3)c3ccc(Cl)c(Cl)c3)C2)c(O)c1 [Compound 5]
2. Cc1ccc(/C(CSc2nc3ccccc3[nH]2)=N/C2=CC=C(Nc3cccc([N+](=O)[O-])c3)C2)cc1 [Compound 12]
3. O=[N+]([O-])c1ccc(NC2=CC=C(/N=C(\CSc3nc4ccccc4[nH]3)c3ccccc3Br)C2)c(O)c1 [Compound 7]

Found:
1: 179; 2: 318; 3: 326

---

Record form. Attribute: pIC50. Fill in for each entry.
- assayed.system: acetylcholinesterase (AChE) (Homo sapiens)
- Construct: purchased Sigma-Aldrich (Steinheim, Germany)
- protocol.description: biochemical
Numbers only, as −log10 of the molar value.

Worked examples, 3 molecules total:
* Cc1cc([N+](=O)[O-])ccc1/C(CSc1nc2ccccc2[nH]1)=N/C1=CC=C(Nc2ccc([N+](=O)[O-])cc2O)C1 [Compound 2] | 3.70
* O=[N+]([O-])c1ccc(NC2=CC=C(/N=C(\CSc3nc4ccccc4[nH]3)c3ccc([N+](=O)[O-])cc3Br)C2)c(O)c1 [Compound 6] | 3.65
* Cc1cc([N+](=O)[O-])ccc1/C(CSc1nc2ccccc2[nH]1)=N/C1=CC=C(Nc2cccc([N+](=O)[O-])c2)C1 [Compound 15] | 3.66

# context switch: different molecule, same pIC50
Lookup: Tell me the measured pIC50 of O=[N+]([O-])c1ccc(/C(CSc2nc3ccccc3[nH]2)=N/C2=CC=C(Nc3cccc([N+](=O)[O-])c3)C2)cc1 [Compound 11] , please.
Found: 3.57

Origin of measurements: paper PMC10535318
